Taken from patent US20250136553A1.

Provide the reported pIC50 of each item.
target: human-KAT6A (MYST domain 507-778 aa) (Homo sapiens (Human)); experiment: KAT6A biochemical assay (TR-FRET); details: TR-FRET; histone H4 peptide 200 nM, acetyl-CoA 600 nM; read-out: KAT6A IC50
Quick note: pIC50 values are minus log10 of concentrations in mol/L.

Endpoint output: pIC50 of `COc1nc(C(=O)NS(=O)(=O)c2cccc3c2CCC3)ccc1Cn1cccn1` . Value?
7.03

Queued: `COc1cc(OC)c(S(=O)(=O)NC(=O)c2ccc(Cn3cccn3)c(OC)n2)c(OC)c1`
7.96

Queued: `COc1cc(C(=O)NS(=O)(=O)c2ccccc2-c2ccccc2)ccc1Cn1cccn1`
7.31

Queued: `COc1ccc(C(C)(C)C)cc1S(=O)(=O)NC(=O)c1ccc(Cn2cccn2)c(OC)n1`
8.10

Queued: `CCOc1nc(C(=O)NS(=O)(=O)c2c(OC)cccc2OC)ccc1Cn1cccn1`
7.72

Queued: `COc1cc(C(=O)NS(=O)(=O)c2c(OC)cccc2OC)c(OC)cc1Cn1cccn1`
7.29

Queued: `COc1cc(OC)c(S(=O)(=O)NC(=O)c2ccc(Cn3cccn3)c(OC)c2)cc1Cl`
8.05

Queued: `COc1ccc(C2CC2)c(OC)c1S(=O)(=O)NC(=O)c1ccc(Cn2cccn2)c(OC)n1`
7.77

Queued: COc1ccc(Cl)c(OC)c1[S@@](=N)(=O)NC(=O)c1ccc(Cn2cccn2)c(OC)n1 [Compound 293b]
7.80

Queued: `COc1ccc(C(F)(F)F)cc1S(=O)(=O)NC(=O)c1ccc(Cn2cccn2)c(OC)n1`
8.00

Queued: `CCOc1cccc(OC)c1S(=O)(=O)NC(=O)c1ccc(Cn2cccn2)c(OC)c1`
7.96

Queued: COc1cccc(OC)c1S(=N)(=O)NC(=O)c1ccc(Cn2cccn2)c(OC)n1 (single isomer, unassigned) [Compound 243b]
7.09

----------
target: human-KAT6A (MYST domain 507-778 aa) (Homo sapiens (Human), UniProt Q92794); assay: KAT6A biochemical assay (TR-FRET); details: KAT6A IC50 (nM), TR-FRET; histone H4 peptide 200 nM, acetyl-CoA 600 nM
Sequence (Q92794 507-778): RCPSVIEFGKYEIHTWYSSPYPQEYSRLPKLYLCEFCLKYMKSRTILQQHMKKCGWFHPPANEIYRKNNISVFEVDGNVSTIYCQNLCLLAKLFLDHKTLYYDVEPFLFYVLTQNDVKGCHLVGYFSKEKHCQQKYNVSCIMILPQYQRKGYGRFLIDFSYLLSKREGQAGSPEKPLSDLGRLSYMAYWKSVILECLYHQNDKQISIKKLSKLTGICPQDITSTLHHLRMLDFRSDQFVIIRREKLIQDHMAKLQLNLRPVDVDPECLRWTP
MEASURED_PROPERTY: IC50 (nM)
Only the number, expressed in nM, is required.

Endpoint output: IC50 of `COc1cc(C(=O)NS(=O)(=O)c2c(OC)cccc2OC)ccc1Cn1cccn1` . Value?
7

----------
biological target: human-KAT6A (MYST domain 507-778 aa) (Homo sapiens (Human)); experiment: KAT6A biochemical assay (TR-FRET); settings: TR-FRET; histone H4 peptide 200 nM, acetyl-CoA 600 nM; read-out: KAT6A IC50
Decide using IC50 alone. Strictly below 20 nM: Y. Equal to or above 20 nM: N.

Identify whether the compound COc1cc(OC)c([S@@](=N)(=O)NC(=O)c2ccc(Cn3cccn3)c(OC)c2)c(OC)c1 [Compound 299b] records IC50 below 20 nM.
N

Queued: `COc1cc(C(=O)NS(=O)(=O)c2cc(C(C)(C)O)ccc2OC)ccc1Cn1cccn1`
Y

Queued: `CCOc1ccc(CC)c(OC)c1S(=O)(=O)NC(=O)c1ccc(Cn2cccn2)c(OC)n1`
Y

Queued: `COc1cc(C(=O)NS(=O)(=O)c2cc(Br)ccc2OC)ccc1Cn1cccn1`
Y

Queued: `COc1cc(C(=O)NS(=O)(=O)c2cccc(O)c2)ccc1Cn1cccn1`
N

Queued: `COc1cc(C(=O)NS(=O)(=O)c2ccccc2OCc2ccccn2)ccc1Cn1cccn1`
N

Queued: COc1cc(C(=O)N[S@](=N)(=O)c2c(OC)cccc2OC)ccc1Cn1cccn1 [Compound 295b]
N

Queued: `COc1ccccc1S(=O)(=O)NC(=O)c1ccc(Cn2cccn2)c(OC)n1`
N
